- EXPERIMENT: physchem
- CONDITION_NOTES: aqueous with cosolvent or surfactant or cyclodextrin, kinetic from dmso stock, solubility in PBS with 5% DMSO
ATTRIBUTE_MEASURED: solubility at 5 min

// returns reported solubility at 5 min for input CN1CCN(CC(=O)N/N=C/c2cc(Cl)ccc2O)CC1
~1000 µM

----------
- EXPERIMENT: physchem
- CONDITION_NOTES: aqueous with cosolvent or surfactant or cyclodextrin, kinetic from dmso stock, solubility 5% DMSO in PBS
ATTRIBUTE_MEASURED: solubility at 5 min (µM)
Note: unit µM is implicit; provide only the numeric part.

Requested field: solubility at 5 min. Item: COc1ccc(-c2cc(/C=N/NC(=O)Cn3nc(C)cc3C)no2)cc1
65

Name the reported solubility at 5 min value associated with the molecule O=C(N/N=C/c1ccc(C(F)(F)F)cc1)c1cccc(Cl)c1
21

Using the record for Nc1c(C(=O)N/N=C/c2ccc(C(F)(F)F)cc2)nnn1-c1cccc(C(F)(F)F)c1 , report its solubility at 5 min.
12

For COc1ccc(NC(=O)c2cc(C(=O)N/N=C/c3cc(Cl)ccc3O)n(C)n2)cc1OC , what is its reported solubility at 5 min?
28

Would you mind telling me what solubility at 5 min value was observed for O=C(N/N=C/c1cc(Cl)ccc1O)c1cccc(Cl)c1 ?
25

For the molecule shown here, O=C(N/N=C/c1cc(Cl)ccc1O)C12CC3CC(C1)CC(n1cnc(Cl)n1)(C3)C2 , give the reported solubility at 5 min.
8

Using the record for Nc1c(C(=O)N/N=C/c2cc(Cl)ccc2O)nnn1-c1cccc(C(F)(F)F)c1 [E1] , report its solubility at 5 min.
3.3

Field request: solubility at 5 min | item: COc1ccc(-c2cc(/C=N/NC(=O)c3cc(CC(C)C)n[nH]3)no2)cc1
20

Using the record for CC(C)Cc1cc(C(=O)N/N=C/c2cc(Cl)ccc2O)[nH]n1 [D1] , report its solubility at 5 min.
22

Query: solubility at 5 min; subject: O=C(N/N=C/c1cc(Cl)ccc1O)c1ccncc1
108

solubility at 5 min lookup needed for COc1ccc(-c2cc(/C=N/NC(=O)c3nnn(-c4cccc(C(F)(F)F)c4)c3N)no2)cc1 , thanks.
29

----------
- ASSAY_TARGET: MtbIspE (Mycobacterium tuberculosis, UniProt P9WKG7)
- Sequence (P9WKG7 whole entry): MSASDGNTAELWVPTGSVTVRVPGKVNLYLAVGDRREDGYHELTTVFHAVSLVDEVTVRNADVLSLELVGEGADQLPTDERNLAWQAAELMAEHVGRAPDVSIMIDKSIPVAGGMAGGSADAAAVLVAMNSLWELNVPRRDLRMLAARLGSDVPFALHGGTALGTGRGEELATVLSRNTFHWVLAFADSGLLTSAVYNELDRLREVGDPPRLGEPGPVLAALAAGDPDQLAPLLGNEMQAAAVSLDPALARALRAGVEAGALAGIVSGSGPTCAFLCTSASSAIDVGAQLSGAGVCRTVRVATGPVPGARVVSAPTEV
- EXPERIMENT: target-directed dynamic combinatorial chemistry (tdDCC), amplification of acylhydrazones in protein-templated vs blank DCL (HPLC-MS/MS, UV 310 nm)
- Type: binding
- CONDITION_NOTES: DCL-4, 24 h, 40 mol % MtbIspE
So I've got a bunch of compounds here, and I need their Amplification factors (DCL-4) values.
Write no unit; give the number alone.

Lab request: please report Amplification factors (DCL-4) under test system MtbIspE (Mycobacterium tuberculosis, UniProt P9WKG7) for COc1ccc(-c2cc(/C=N/NC(=O)c3nnn(-c4cccc(C(F)(F)F)c4)c3N)no2)cc1
2.3

Request: Amplification factors (DCL-4), test system MtbIspE (Mycobacterium tuberculosis, UniProt P9WKG7), entry COc1ccc(-c2cc(/C=N/NC(=O)c3cc(CC(C)C)n[nH]3)no2)cc1
1.0

What is its Amplification factors (DCL-4) for MtbIspE (Mycobacterium tuberculosis, UniProt P9WKG7)? Entry: COc1ccc(-c2cc(/C=N/NC(=O)Cn3nc(C)cc3C)no2)cc1
0.9

Query the reported Amplification factors (DCL-4) for MtbIspE (Mycobacterium tuberculosis, UniProt P9WKG7); item: Nc1c(C(=O)N/N=C/c2ccc(C(F)(F)F)cc2)nnn1-c1cccc(C(F)(F)F)c1
0.7

----------
Would you mind telling me the reported ΔTm at 20 µM of each entry?
- ASSAY_TARGET: UniProt:P9WKG7
- EXPERIMENT: MtbIspE binding study via thermal shift assay
- CONDITION_NOTES: read-out: MtbIspE ΔTm at 20 μM

Recorded ΔTm at 20 µM of COc1ccc(-c2cc(/C=N/NC(=O)Cn3nc(C)cc3C)no2)cc1 , please.
< 0.3 °C

Which value of ΔTm at 20 µM has been reported for COc1ccc(NC(=O)c2cc(C(=O)N/N=C/c3cc(Cl)ccc3O)n(C)n2)cc1OC in the records?
< 0.3 °C

Item CN1CCN(CC(=O)N/N=C/c2cc(Cl)ccc2O)CC1 has what recorded ΔTm at 20 µM?
< 0.3 °C

Need ΔTm at 20 µM of O=C(N/N=C/c1cc(Cl)ccc1O)c1ccncc1 , thanks.
< 0.3 °C

// returns reported ΔTm at 20 µM for input COc1ccc(-c2cc(/C=N/NC(=O)c3cc(CC(C)C)n[nH]3)no2)cc1
< 0.3 °C

ΔTm at 20 µM for O=C(N/N=C/c1ccc(C(F)(F)F)cc1)c1cccc(Cl)c1 ?
0.7 °C

ΔTm at 20 µM for CC(C)Cc1cc(C(=O)N/N=C/c2cc(Cl)ccc2O)[nH]n1 [D1] ?
< 0.3 °C

// ΔTm at 20 µM lookup, key: COc1ccc(-c2cc(/C=N/NC(=O)c3nnn(-c4cccc(C(F)(F)F)c4)c3N)no2)cc1
0.7 °C

Can you share its ΔTm at 20 µM? I mean this compound: O=C(N/N=C/c1cc(Cl)ccc1O)c1cccc(Cl)c1
0.7 °C

----------
- EXPERIMENT: solubility in M. tuberculosis 7H9 growth medium
- Format: physicochemical
- CONDITION_NOTES: Mtb 7H9 growth medium
ATTRIBUTE_MEASURED: solubility in 7H9

# COMPOUND, solubility in 7H9
records = [
    ("Nc1c(C(=O)N/N=C/c2ccc(C(F)(F)F)cc2)nnn1-c1cccc(C(F)(F)F)c1 [E4]", "insoluble"),
    ("Nc1c(C(=O)N/N=C/c2cc(Cl)ccc2O)nnn1-c1cccc(C(F)(F)F)c1 [E1]", "insoluble"),
    ("CC(C)Cc1cc(C(=O)N/N=C/c2cc(Cl)ccc2O)[nH]n1 [D1]", "insoluble"),
    ("COc1ccc(-c2cc(/C=N/NC(=O)c3nnn(-c4cccc(C(F)(F)F)c4)c3N)no2)cc1 [E6]", "insoluble"),
]

Proceed to the following item.
Which solubility in 7H9 is reported for this compound? O=C(N/N=C/c1cc(Cl)ccc1O)c1cccc(Cl)c1 [K1]
insoluble

----------
Provide the recorded Amplification factors (DCL-3) for the entries that follow.
- ASSAY_TARGET: MtbIspE (Mycobacterium tuberculosis)
- EXPERIMENT: target-directed dynamic combinatorial chemistry (tdDCC), amplification of acylhydrazones in protein-templated vs blank DCL (HPLC-MS/MS, UV 310 nm)
- Format: binding
- CONDITION_NOTES: DCL-3, 24 h, 40 mol % MtbIspE; I1 and K1 integrated as one cluster
- Experimental: In this study, we used MtbIspE as target protein and the reversible reaction of hydrazides and aldehydes to form dynamic combinatorial libraries (DCLs) of acylhydrazones. […] We analyzed the protein’s effect on the DCLs by comparing HPLC-MS/MS data of blank vs protein-templated (PT) experiments. […] High-resolution mass (HRMS) of final products was determined by HPLC-MS/MS using a Thermo Scientific Q Exactive Focus Orbitrap LC -MS/MS system. […]
When you answer, write just the number.

Please look up its Amplification factors (DCL-3): O=C(N/N=C/c1cc(Cl)ccc1O)C12CC3CC(C1)CC(n1cnc(Cl)n1)(C3)C2
2.0

Suppose we examine the compound O=C(N/N=C/c1cc(Cl)ccc1O)c1cccc(Cl)c1 ; what Amplification factors (DCL-3) value has been reported?
2.0

Amplification factors (DCL-3) lookup needed for O=C(N/N=C/c1cc(Cl)ccc1O)c1ccncc1 , thanks.
4.1

Fill in the blank: the reported Amplification factors (DCL-3) of COc1ccc(NC(=O)c2cc(C(=O)N/N=C/c3cc(Cl)ccc3O)n(C)n2)cc1OC is ____.
7.8

----------
- Test system: EcTolC
- EXPERIMENT: microbe, parasite or virus in culture
- Format: cell-based
- CONDITION_NOTES: Escherichia coli, 18 h, LB medium, read-out: EcTolC %inh. At 50 μM
Response key: t means inhibition at 50 µM >= 30%; f means inhibition at 50 µM < 30%.

Entry O=C(N/N=C/c1cc(Cl)ccc1O)C12CC3CC(C1)CC(n1cnc(Cl)n1)(C3)C2 : is its inhibition at 50 µM no less than 30%?
t

For this compound, is measured inhibition at 50 µM 30% or higher? O=C(N/N=C/c1ccc(C(F)(F)F)cc1)c1cccc(Cl)c1
t

Determine whether this compound has inhibition at 50 µM no lower than 30%: COc1ccc(-c2cc(/C=N/NC(=O)Cn3nc(C)cc3C)no2)cc1
f

Given O=C(N/N=C/c1cc(Cl)ccc1O)c1ccncc1 , state whether its inhibition at 50 µM is at least 30%.
t

Hello, I need to know if Nc1c(C(=O)N/N=C/c2cc(Cl)ccc2O)nnn1-c1cccc(C(F)(F)F)c1 [E1] has measured inhibition at 50 µM not below 30%. Thanks!
f

Determine whether measured inhibition at 50 µM meets or exceeds 30% for CN1CCN(CC(=O)N/N=C/c2cc(Cl)ccc2O)CC1
f

State whether the measured inhibition at 50 µM reaches 30%, counting equality as reaching it, for CC(C)Cc1cc(C(=O)N/N=C/c2cc(Cl)ccc2O)[nH]n1 [D1]
f

Has COc1ccc(-c2cc(/C=N/NC(=O)c3cc(CC(C)C)n[nH]3)no2)cc1 a recorded inhibition at 50 µM greater than or equal to 30%?
t

hey, is inhibition at 50 µM for this one >= 30%? COc1ccc(-c2cc(/C=N/NC(=O)c3nnn(-c4cccc(C(F)(F)F)c4)c3N)no2)cc1
f

Confirm if inhibition at 50 µM reported for the compound COc1ccc(NC(=O)c2cc(C(=O)N/N=C/c3cc(Cl)ccc3O)n(C)n2)cc1OC is 30% or above.
f

Tell me whether inhibition at 50 µM is at least 30% here: Nc1c(C(=O)N/N=C/c2ccc(C(F)(F)F)cc2)nnn1-c1cccc(C(F)(F)F)c1
f

Values were extracted from paper PMC11391541.
